Taken from ChEMBL document CHEMBL3526097.

- test_details: Tmax in Sprague-Dawley rat at 3 mg/kg, po by LC-MS/MS analysis
- Format: ADME, organism-based
- Design: dose 3 mg/kg, route oral
- condition_label: in vivo
property_name: Tmax
Hey, just the number and the unit after it is fine.

# Tmax (molecule: `O=C(c1ccc(F)c(F)c1Nc1ccc(I)cc1F)N1CC(O)([C@@H]2CCCCN2)C1` ) is 3.5 h

* * *

- test_details: Percentage unbound in mouse plasma at 1 uM after 5 hrs by equilibrium dialysis
- Type: ADME, cell-free
property_name: fraction unbound at 5 h, 1 µM
Lab note: jot the number down without any unit.

# fraction unbound at 5 h, 1 µM (compound: `O=C(c1ccc(F)c(F)c1N[14c]1[14cH][14cH][14c](I)[14cH][14c]1F)N1CC(O)([C@@H]2CCCCN2)C1` ) is 0.041

* * *

- test_details: Percentage unbound in cynomolgus monkey plasma at 10 uM after 5 hrs by equilibrium dialysis
- Type: ADME, cell-free, Macaca fascicularis
property_name: fraction unbound at 5 h, 10 µM

# fraction unbound at 5 h, 10 µM (compound: `O=C(c1ccc(F)c(F)c1N[14c]1[14cH][14cH][14c](I)[14cH][14c]1F)N1CC(O)([C@@H]2CCCCN2)C1` ) is 0.048

* * *

- test_details: Volume of distribution at steady state in cynomolgus monkey at 3 mg/kg, iv by LC-MS/MS analysis
- Assay type: ADME, organism-based, Macaca fascicularis
- Parameters: dose 3 mg/kg, route intravenous
- condition_label: in vivo, read-out: Vdss
property_name: Vd (L/kg)
Give the value in L/kg but do not write L/kg after it.

# Vd (compound: O=C(c1ccc(F)c(F)c1Nc1ccc(I)cc1F)N1CC(O)([C@@H]2CCCCN2)C1 [COBIMETINIB] ) is 29.6

* * *

- test_details: Volume of distribution at steady state in nu/nu mouse at 1 mg/kg, iv by LC-MS/MS analysis
- Assay type: ADME, organism-based
- Design: dose 1 mg/kg, route intravenous
- condition_label: in vivo, read-out: Vdss
property_name: Vd

# Vd (compound: `O=C(c1ccc(F)c(F)c1Nc1ccc(I)cc1F)N1CC(O)([C@@H]2CCCCN2)C1` ) is 9.4 L/kg

* * *

- test_details: Ratio of drug level in blood to plasma in beagle dog at 10 uM after 30 mins
- Format: ADME, Canis lupus familiaris
property_name: blood plasma ratio at 0.5 h, 10 µM
Lab note: jot the number down without any unit.

# blood plasma ratio at 0.5 h, 10 µM (molecule: `O=C(c1ccc(F)c(F)c1N[14c]1[14cH][14cH][14c](I)[14cH][14c]1F)N1CC(O)([C@@H]2CCCCN2)C1` ) is 0.936

* * *

- test_details: Percentage unbound in rat plasma at 10 uM after 5 hrs by equilibrium dialysis
- Type: ADME, cell-free
property_name: fraction unbound at 5 h, 10 µM
Lab note: jot the number down without any unit.

# fraction unbound at 5 h, 10 µM (compound: `O=C(c1ccc(F)c(F)c1N[14c]1[14cH][14cH][14c](I)[14cH][14c]1F)N1CC(O)([C@@H]2CCCCN2)C1` ) is 0.037

* * *

- test_details: Ratio of drug level in blood to plasma in Sprague-Dawley rat at 1 uM after 30 mins
- Type: ADME
property_name: blood plasma ratio at 0.5 h, 1 µM
Lab note: jot the number down without any unit.

# blood plasma ratio at 0.5 h, 1 µM (compound: `O=C(c1ccc(F)c(F)c1N[14c]1[14cH][14cH][14c](I)[14cH][14c]1F)N1CC(O)([C@@H]2CCCCN2)C1` ) is 1.36
